Biological target: T1, B3GNT2 (Homo sapiens, UniProt Q9NY97)
T1 construct: The respective ORFs of candidate genes [CD274 (NM_014143), MCL1 (NM_021960), JUNB (NM_002229), and B3GNT2 (NM_006577)] were synthesized; expressed in transfected cells; host or cells: A375 melanoma cells (lentiviral ORF overexpression)
T1 sequence (Q9NY97 1-397): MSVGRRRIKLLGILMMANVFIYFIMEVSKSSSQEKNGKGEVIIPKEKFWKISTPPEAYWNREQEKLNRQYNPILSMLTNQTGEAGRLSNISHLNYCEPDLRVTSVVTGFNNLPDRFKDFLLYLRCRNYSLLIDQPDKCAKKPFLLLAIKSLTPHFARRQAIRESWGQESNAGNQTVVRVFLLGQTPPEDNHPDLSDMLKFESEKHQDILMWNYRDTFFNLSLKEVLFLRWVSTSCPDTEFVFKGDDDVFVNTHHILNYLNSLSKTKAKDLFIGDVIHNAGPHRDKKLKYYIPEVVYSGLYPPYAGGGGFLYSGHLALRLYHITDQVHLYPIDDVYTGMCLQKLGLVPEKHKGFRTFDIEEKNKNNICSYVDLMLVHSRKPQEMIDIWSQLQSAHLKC
Assay: Co-IP of FLAG-tagged B3GNT2 followed by mass spectrometry
Format: cell-based
Set-up: unit not given here
Conditions: Co-IP with IgG control antibody, C-terminally FLAG-tagged B3GNT2; mass spectrometry count, unit not given
# C-term IgG annotations
I only need the number, thanks.

SLC25A3 (protein) AVEEQYSCDYGSGRFFILCGLGGIISCGTTHTALVPLDLVKCRMQVDPQKYKGIFNGFSVTLKEDGVRGLAKGWAPTFLGYSMQGLCKFGFYEVFKVLYSNMLGEENTYLWRTSLYLAASASAEFFADIALAPMEAAKVRIQTQPGYANTLRDAAPKMYKEEGLKAFYKGVAPLWMRQIPYTMMKFACFERTVEALYKFVVPKPRSECSKPEQLVVTFVAGYIAGVFCAIVSHPADSVVSVLNKEKGSSASLVLKRLGFKGVWKGLFARIIMIGTLTALQWFIYDSVKVYFRLPRPPPPEMPESLKKKLGLTQ: 0

Could you now look at the following molecule, please?
Which C-term IgG value belongs to HLA-A (protein) MHC heavy: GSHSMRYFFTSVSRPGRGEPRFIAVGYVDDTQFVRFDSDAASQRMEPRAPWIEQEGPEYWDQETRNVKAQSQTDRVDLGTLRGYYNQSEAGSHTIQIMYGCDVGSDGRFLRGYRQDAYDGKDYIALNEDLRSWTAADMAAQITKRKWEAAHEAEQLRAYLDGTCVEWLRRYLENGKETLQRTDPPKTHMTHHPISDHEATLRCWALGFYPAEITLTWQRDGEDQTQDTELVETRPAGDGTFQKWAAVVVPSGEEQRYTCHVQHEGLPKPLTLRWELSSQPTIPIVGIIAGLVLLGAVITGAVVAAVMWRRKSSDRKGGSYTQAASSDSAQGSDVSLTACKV ?
0
